Kindly state cell viability for each of the entries shown.
Tested on: SEM cells
Experiment: cell viability relative to DMSO control; higher = less cytotoxic
Conditions: RPMI 5 mM glucose + 10% FBS; 48 h; 0.000781 µM
Give your result as the value with the unit written after it.

molecule="CC(=O)CC(C1=CC=CC=C1)C/2=C(O)/C3=CC=CC=C3OC2=O (centres undefined)" endpoint_value=110%
molecule=Cn1cc(-c2ccc3nnc(C(F)(F)c4ccc5ncccc5c4)n3n2)cn1 endpoint_value=123%
molecule=CC(C)Nc1cc(C(F)(F)F)cc2nc(NC(=O)c3cccnc3)nn12 endpoint_value=113%

input: Looking for the measured cell viability of CC1(C)OC2CC3C4CC(F)C/5=C/C(=O)/C=C\C5(C)C4C(O)CC3(C)[C@@]2(O1)C(=O)CO (some centres undefined) , can you help?
output: 91.4%
